The following compounds are listed with their measured Papp A→B values.
protocol.details: Apparent permeability from apical to basolateral side of dog RRCK cells by transwell assay
Type: ADME, cell-based, Canis lupus familiaris, MDCKII-LE
settings: MDCK

smiles.entry	Papp A→B
NC(=O)[C@@H](CCC(F)(F)F)N(C[C@H]1CCOC1)S(=O)(=O)c1ccc(Cl)cc1	21.7 ×10⁻⁶ cm/s
NC(=O)[C@@H](CCC(F)(F)F)N(CC1CCCC1)S(=O)(=O)c1ccc(Cl)cc1	6.01 ×10⁻⁶ cm/s
NC(=O)[C@@H](CCC(F)(F)F)N(CC1CCCCC1)S(=O)(=O)c1ccc(Cl)cc1	4.42 ×10⁻⁶ cm/s
